These entries and their values trace back to patent US9150566B2.

target_or_test_system: UniProtKB P08684
Sequence (P08684 whole entry): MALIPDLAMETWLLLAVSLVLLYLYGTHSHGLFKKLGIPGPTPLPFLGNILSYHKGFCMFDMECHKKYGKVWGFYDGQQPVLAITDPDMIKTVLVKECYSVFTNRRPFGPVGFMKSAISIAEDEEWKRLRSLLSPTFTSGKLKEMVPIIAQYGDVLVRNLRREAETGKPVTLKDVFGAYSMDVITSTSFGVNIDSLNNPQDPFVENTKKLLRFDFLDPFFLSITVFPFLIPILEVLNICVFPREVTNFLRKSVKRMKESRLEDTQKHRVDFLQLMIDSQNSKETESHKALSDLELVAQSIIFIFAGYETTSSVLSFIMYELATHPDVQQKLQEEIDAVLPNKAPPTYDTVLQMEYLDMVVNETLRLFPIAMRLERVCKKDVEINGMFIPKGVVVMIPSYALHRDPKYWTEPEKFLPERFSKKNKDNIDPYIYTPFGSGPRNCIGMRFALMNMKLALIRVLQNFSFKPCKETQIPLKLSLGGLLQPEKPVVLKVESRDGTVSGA
procedure_text: CYP3A4 inhibition assay (human liver microsomes, testosterone 6β-hydroxylation)
assay_context: read-out: CYP3A4 IC50, 40 μM testosterone
parameter_measured: pIC50
Field pIC50 (float): negative decimal logarithm of the concentration in molar.

Enquiry: Give its pIC50 value. Item: COc1cc(C(=O)N2CCOC[C@H]2Cc2cccc(-n3nccn3)c2)c(-n2nccn2)cc1Cl
Return: 4.89

Enquiry: Request the reported pIC50 associated with Cc1ccc(-n2nccn2)c(C(=O)N2CCOC[C@H]2Cc2cccc(-c3nccc(C)n3)c2)c1
Return: 4.74

Enquiry: Give the measured pIC50 of Cc1ccc(C(=O)N2CCOC[C@H]2Cc2cc(-n3cccn3)ccc2C)c(-n2nccn2)c1 .
Return: 4.77

Enquiry: Would you kindly share the measured pIC50 for O=C(c1ccccc1-n1nccn1)N1CCOC[C@H]1Cc1cc(-n2nccn2)ccc1Cl ?
Return: 4.77
